All values here come from patent US12070468B2.

System: LMEC28
Experiment: High throughput screening (HTPS), cell viability relative to vehicle
Format: cell-based, human
Details: 1 μM, 48 hours, rank 1 = most effective
Rule: Ranking in HTPS for suppressing cell proliferation and growth below 20 gives TRUE, anything at or above gives FALSE.

compound="Cc1nc(NC(=O)N2CCC[C@H]2C(N)=O)sc1-c1ccnc(C(C)(C)C(F)(F)F)c1 [Alpelisib]" cat=FALSE
compound="CC(C)C[C@H](NC(=O)[C@H](CCc1ccccc1)NC(=O)CN1CCOCC1)C(=O)N[C@@H](Cc1ccccc1)C(=O)N[C@@H](CC(C)C)C(=O)[C@@]1(C)CO1 [Carfilzomib]" cat=TRUE
compound="CC(C)C[C@H](NC(=O)[C@@H](NC(=O)c1cccc(-c2ccccc2)n1)[C@@H](C)O)B(O)O [Delanzomib]" cat=TRUE
compound="CO[C@H]1C[C@@H]2CC[C@@H](C)[C@@](O)(O2)C(=O)C(=O)N2CCCC[C@H]2C(=O)O[C@H]([C@H](C)C[C@@H]2CC[C@@H](O)[C@H](OC)C2)CC(=O)[C@H](C)/C=C(\\C)[C@@H](O)[C@@H](OC)C(=O)[C@H](C)C[C@H](C)/C=C/C=C/C=C/1C [Sirolimus]" cat=FALSE
compound="CC(C)C[C@H](NC(=O)CNC(=O)c1cc(Cl)ccc1Cl)B(O)O [Ixazomib]" cat=TRUE
compound="CC(=O)Nc1cccc(-n2c(=O)n(C3CC3)c(=O)c3c(Nc4ccc(I)cc4F)n(C)c(=O)c(C)c32)c1 [Trametinib]" cat=FALSE
compound="CCN(CC)C(=S)SSC(=S)N(CC)CC [Disulfiram]" cat=TRUE

---

System: LMEC10
Assay: High throughput screening (HTPS), cell viability relative to vehicle
Type: cell-based, human
Details: 1 μM, 48 hours, rank 1 = most effective
Protocol: High throughput screening of drugs was performed using ECs from either LMs (LMECs) or VM (VMECs) carrying pathogenic variants in genes of the PI3K/AKT/mTOR pathway or variants predicted to hyperactivate the RAS/RAF/MAPK pathway (Table 3). Per optimization studies, about 500 cells were seeded into the wells of a 384-well plate and the VMECs or LMECs were treated with 1 μM of approximately 2500 drugs, which were either in clinical trials or FDA approved for another condition. […]
Ranking in HTPS for suppressing cell proliferation and growth strictly under 5 means yes (1); at 5 or over means no (0).

compound="CC(=O)Nc1cccc(-n2c(=O)n(C3CC3)c(=O)c3c(Nc4ccc(I)cc4F)n(C)c(=O)c(C)c32)c1 [Trametinib]" cat="no (0)"
compound="CC(C)C[C@H](NC(=O)[C@@H](NC(=O)c1cccc(-c2ccccc2)n1)[C@@H](C)O)B(O)O [Delanzomib]" cat="yes (1)"
compound="CC(C)C[C@H](NC(=O)[C@H](CCc1ccccc1)NC(=O)CN1CCOCC1)C(=O)N[C@@H](Cc1ccccc1)C(=O)N[C@@H](CC(C)C)C(=O)[C@@]1(C)CO1 [Carfilzomib]" cat="yes (1)"
compound="CCN(CC)C(=S)SSC(=S)N(CC)CC [Disulfiram]" cat="yes (1)"
compound="CO[C@H]1C[C@@H]2CC[C@@H](C)[C@@](O)(O2)C(=O)C(=O)N2CCCC[C@H]2C(=O)O[C@H]([C@H](C)C[C@@H]2CC[C@@H](O)[C@H](OC)C2)CC(=O)[C@H](C)/C=C(\\C)[C@@H](O)[C@@H](OC)C(=O)[C@H](C)C[C@H](C)/C=C/C=C/C=C/1C [Sirolimus]" cat="no (0)"
compound="Cc1nc(NC(=O)N2CCC[C@H]2C(N)=O)sc1-c1ccnc(C(C)(C)C(F)(F)F)c1 [Alpelisib]" cat="no (0)"
